TARGET_DESC: T1, human MSLN-R3-his protein (human, UniProt Q13421 487-598)
T1 construct: Self-made in HEK293E cells; also called human MSLN-R3 protein; hMSLN-R3-his; not shown: His tag
PROTOCOL: ELISA on coated antigen, antibody 0.1 nM
EXPERIMENTAL_ENDPOINT: OD450 (OD450)

BINDER	EXPERIMENTAL_ENDPOINT	QUANTITY_UNIT	REPORTED_RESULT
S009-F2.39.3 (antibody, human IgG1, kappa, V domains shown, Human-murine chimeric antibody: murine VH/VL on human IgG1 heavy and kappa light constant regions) VH: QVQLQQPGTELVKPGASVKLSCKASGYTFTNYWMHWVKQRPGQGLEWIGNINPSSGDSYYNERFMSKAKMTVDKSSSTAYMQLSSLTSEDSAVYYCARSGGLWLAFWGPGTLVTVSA VL: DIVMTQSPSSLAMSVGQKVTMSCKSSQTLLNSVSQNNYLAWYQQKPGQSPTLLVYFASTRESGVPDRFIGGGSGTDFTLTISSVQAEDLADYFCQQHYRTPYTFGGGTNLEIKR	OD450	OD450	0.07
S009-F2-56.12 (antibody, human IgG1, kappa, V domains shown, Human-murine chimeric antibody: murine VH/VL on human IgG1 heavy and kappa light constant regions) VH: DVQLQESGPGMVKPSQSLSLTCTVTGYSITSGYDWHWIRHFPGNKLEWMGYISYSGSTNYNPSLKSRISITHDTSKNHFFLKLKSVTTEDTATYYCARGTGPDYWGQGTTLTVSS VL: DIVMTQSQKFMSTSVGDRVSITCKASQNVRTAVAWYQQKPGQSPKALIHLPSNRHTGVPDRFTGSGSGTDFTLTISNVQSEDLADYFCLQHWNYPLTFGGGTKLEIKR	OD450	OD450	0.05
S009-F2.58.8 (antibody, human IgG1, kappa, V domains shown, Human-murine chimeric antibody: murine VH/VL on human IgG1 heavy and kappa light constant regions) VH: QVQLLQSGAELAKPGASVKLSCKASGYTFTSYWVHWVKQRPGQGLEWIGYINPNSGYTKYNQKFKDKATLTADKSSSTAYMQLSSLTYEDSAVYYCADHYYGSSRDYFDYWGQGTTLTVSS VL: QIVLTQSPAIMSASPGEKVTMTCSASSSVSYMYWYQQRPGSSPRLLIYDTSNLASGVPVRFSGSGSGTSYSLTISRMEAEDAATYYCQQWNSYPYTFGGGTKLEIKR	OD450	OD450	0.05

Cited source for all entries: patent US20250250357A1
